Where these numbers come from: paper PMC6270976

- TEST_DESCRIPTION: Plasma pharmacokinetics of G–A after a single oral dose in ICR mice (HPLC, PKSolver)
- Assay type: in vivo
- STUDY_CONDITIONS: ICR, mouse, plasma, po, 200 mg/kg, plasma, one-compartment model, oral 200 mg/kg, read-out: V/F (apparent volume of distribution)
METRIC: Vd/F (L/kg)
State just the number; it will be interpreted in L/kg.

The measured Vd/F associated with COC(=O)[C@@]12CC[C@]3(C)C([C@H](O)[C@H](O)[C@@]4([C@@H](C)O)COC(=O)C=C[C@H]43)[C@@]1(C)CC[C@@]1(C)CC=C(C)C[C@]12O (stereo partly shown) [G–A, galphimine-A] reads 57.6
